- Test system: CV-1 cells
- Measurement Notes: selective killing assay, colony number reduced to 50% of control, normal monkey kidney epithelial cell line CV-1
- Format: cell-based
- Test Context: Primates, CV-1, Table III; normal monkey kidney epithelial cells, 24 hours treatment, colony count after 7 to 10 days
Reported Property: IC50 (µg/mL)

{"columns": ["Compound", "Tested On", "Unit Symbol", "Experimental Result"],
 "data": [
  ["CCn1c(=Cc2oc3ccc4ccccc4c3[n+]2CC)sc(=C2Oc3ccc4ccccc4c3N2C)c1=O", "CV-1 cells", "µg/mL", 20],
  ["CCn1c(=Cc2scc(C)[n+]2CC)sc(=C2Sc3ccccc3N2C)c1=O", "CV-1 cells", "µg/mL", 6],
  ["CCn1c(=Cc2sc3ccccc3[n+]2CC)sc(=C2Sc3ccc(C)cc3N2C)c1=O", "CV-1 cells", "µg/mL", 8],
  ["CCn1c(=C2CCC[n+]3c2sc2ccccc23)sc(=C2Sc3ccccc3N2C)c1=O", "CV-1 cells", "µg/mL", 20],
  ["CCN1C(=CC=c2sc(=Cc3sc4c([n+]3CC)CCCC4)n(CC)c2=O)Oc2ccccc21 [C, reference compound]", "CV-1 cells", "µg/mL", 2],
  ["CCn1c(=Cc2cc[n+](CC)c3ccccc23)sc(=C2C=Cc3ccccc3N2C)c1=O", "CV-1 cells", "µg/mL", 4],
  ["CCn1c(=Cc2sc3c4ccccc4ccc3[n+]2CC)sc(=C2SCCN2C)c1=O", "CV-1 cells", "µg/mL", 20],
  ["CCn1c(=Cc2oc3ccccc3[n+]2CC)sc(=C2Oc3ccccc3N2C)c1=O", "CV-1 cells", "µg/mL", 18]
]}

Values compiled from patent US5360803A.
